- ASSAY_SYSTEM: DRB1*1101
- MEASUREMENT_DESCRIPTION: binding to purified HLA
- ASSAY_CONTEXT: chains peptide; modification not given
pIC50: −log10 of the molar value.
OUTCOME_MEASURE: pIC50

{"BINDER": "AKFVAAWTLKAAA [SEQ ID NO: 3]", "OUTCOME_MEASURE": "pIC50", "ASSAY_RESULT": 8.04}
